Test system: VCaP cells
Assay: Cellular potency (IC50) in VCaP cells
Format: cell-based
Conditions: Homo sapiens, VCaP
What IC50 was measured for each of the following?

Study these solved cases before continuing.
{"columns": ["MOLECULE", "IC50"],
 "data": [
  ["C[C@H]1CC2(CCN(c3ccc(N4CCN(C5CN(c6ccc7c(c6)C(=O)N(C6CCC(=O)NC6=O)C7=O)C5)CC4)cc3)CC2)CN1c1ccc(C#N)c(Cl)c1 (some centres unmarked)", "< 0.01 µM"],
  ["C[C@H]1CC2(CCN(c3ccc(N4CCN(C5CCN(c6ccc7c(c6)C(=O)N(C6CCC(=O)NC6=O)C7=O)CC5)CC4)cc3)CC2)CN1c1ccc(C#N)c(Cl)c1 (some centres unmarked)", "< 0.1 µM"]
]}

// each molecule listed below needs its IC50
1. C[C@H]1CC2(CCN(c3ccc(OC4CN(C5CN(c6ccc7c(c6)C(=O)N(C6CCC(=O)NC6=O)C7=O)C5)C4)nn3)CC2)CN1c1ccc(C#N)c(Cl)c1 (some centres unmarked)
2. C[C@H]1CC2(CCN(c3ccc(CN4CCN(C5CN(c6cc7c(cc6F)C(=O)N(C6CCC(=O)NC6=O)C7=O)C5)CC4)nc3)CC2)CN1c1ccc(C#N)c(Cl)c1 (some centres unmarked)

["< 1 µM", "< 0.01 µM"]

// each molecule listed below needs its IC50
1. C[C@H]1CC2(CCN(c3ccc(CC4CCN(CC5CN(c6ccc7c(c6)C(=O)N(C6CCC(=O)NC6=O)C7=O)C5)CC4)cc3)CC2)CN1c1ccc(C#N)c(Cl)c1 (some centres unmarked)
2. C[C@H]1CC2(CCN(c3ccc(CN4CCN(C5CN(c6cc7c(cc6F)C(=O)N(C6CCC(=O)NC6=O)C7=O)C5)CC4)cn3)CC2)CN1c1ccc(C#N)c(Cl)c1 (some centres unmarked)
3. C[C@H]1CC2(CCN(c3ccc(OC4CCN(C5CN(c6ccc7c(c6)C(=O)N(C6CCC(=O)NC6=O)C7=O)C5)CC4)nc3)CC2)CN1c1ccc(C#N)c(Cl)c1 (some centres unmarked)

1: < 0.01 µM; 2: < 0.1 µM; 3: < 0.01 µM

// each molecule listed below needs its IC50
1. C[C@H]1CC2(CCN(c3cnc(CN4CCN(C5CN(c6ccc7c(c6)C(=O)N(C6CCC(=O)NC6=O)C7=O)C5)CC4)nc3)CC2)CN1c1ccc(C#N)c(Cl)c1 (some centres unmarked)
2. C[C@H]1CC2(CCN(c3ccc(S(=O)(=O)C4CN(C(=O)CN5Cc6cc7c(cc6C5)C(=O)N(C5CCC(=O)NC5=O)C7=O)C4)cc3)CC2)CN1c1ccc(C#N)c(Cl)c1 (some centres unmarked)
3. C[C@H]1CC2(CCN(c3ccc(CC4CCN(C5CN(c6ccc7c(c6)C(=O)N(C6CCC(=O)NC6=O)C7=O)C5)CC4)cn3)CC2)CN1c1ccc(C#N)c(Cl)c1 (some centres unmarked)

["< 0.1 µM", "< 0.1 µM", "< 0.1 µM"]

For reference, reported IC50 for C[C@H]1CC2(CCN(c3ccc(OC4CN(C5CCN(c6ccc7c(c6)C(=O)N(C6CCC(=O)NC6=O)C7=O)CC5)C4)cn3)CC2)CN1c1ccc(C#N)c(Cl)c1 (some centres unmarked) stands at < 1 µM
